B1: Protein piccolo, residues 1058 to 1114; numbered along this chain, Q9Y6V0 (parent)
chain: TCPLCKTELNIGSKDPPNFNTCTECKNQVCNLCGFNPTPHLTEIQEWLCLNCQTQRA

Variants of: B1
assay-info: abundance fitness (aPCA) (normalised: wild type 0, dead -1); higher = more abundant; growth selection in yeast, the domain comes from the species named
condition-parameters: Homo sapiens
Classification field: enter Met for abundance fitness values not below 0.1, Not met for values below it.

Could you verify whether the entry L4T shows abundance fitness of no less than 0.1? Not met

Then Q28Y ? Not met

Then C25W ? Not met

Then P17E ? Met

Then F19C ? Not met

Then L50H ? Met

Then N18E ? Not met

Then F35P ? Met

Then G34K ? Not met

Then N27G ? Met

Then I44H ? Not met

Then L9W ? Not met
